Target: JAK1 (Homo sapiens, UniProt P23458)
Construct: JAK1 (aa 850-1154) and TYK2 (aa 871-1187) are expressed with an N-terminally fused GST-tag; GST (N)
Sequence (P23458 850-1154): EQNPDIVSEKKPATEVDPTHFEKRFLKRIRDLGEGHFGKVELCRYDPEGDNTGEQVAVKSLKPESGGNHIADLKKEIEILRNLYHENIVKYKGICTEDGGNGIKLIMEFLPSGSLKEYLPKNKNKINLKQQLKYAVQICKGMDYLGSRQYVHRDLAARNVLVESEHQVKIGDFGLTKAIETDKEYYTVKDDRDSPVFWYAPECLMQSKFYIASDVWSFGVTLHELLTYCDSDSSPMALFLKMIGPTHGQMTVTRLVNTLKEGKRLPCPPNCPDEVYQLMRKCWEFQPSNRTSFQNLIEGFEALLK
Experiment: JAK1 kinase assay (HTRF, inhibition of phosphorylation of a synthetic peptide)
Conditions: catalytic domain aa 850-1154, GST-tag; 7 μM ATP (Km); read-out: JAK1 kinase inhibitory activity (EC50)
pEC50: −log10 of the molar value.
This listing pairs molecules with measured pEC50.

Q) # get_value(readout='pEC50', item= Cc1ncoc1C(=O)N1CCN(c2ncnc3[nH]ccc23)CC2(CC2)C1 )
A) 6.00 to 7.00

Q) Similarly, Nc1nonc1C(=O)N1CCCN(c2ncnc3[nH]ccc23)CC12CC2 ?
A) > 7.00

Q) And N#Cc1ccc2[nH]c(C(=O)N3CCN(c4ncnc5[nH]ccc45)CC4(CC4)C3)cc2c1 ?
A) > 7.00

Q) Ok, now N#Cc1ccc(C(=O)N2CCCN(c3ncnc4[nH]ccc34)CC23CC3)o1
A) > 7.00

* * *

Molecular target: JAK3 (Homo sapiens)
Construct: All four purified enzymes contain only the catalytic domain; His (N)
Sequence (P52333 822-1111 limits assumed): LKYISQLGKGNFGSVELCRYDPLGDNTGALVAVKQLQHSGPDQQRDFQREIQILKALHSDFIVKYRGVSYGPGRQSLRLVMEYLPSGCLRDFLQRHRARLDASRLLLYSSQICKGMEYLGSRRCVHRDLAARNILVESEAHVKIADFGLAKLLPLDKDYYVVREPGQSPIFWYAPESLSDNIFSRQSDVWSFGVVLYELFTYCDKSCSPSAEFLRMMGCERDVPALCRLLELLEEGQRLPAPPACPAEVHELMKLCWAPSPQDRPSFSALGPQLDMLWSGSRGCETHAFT
Experiment: JAK3 kinase assay (HTRF, inhibition of phosphorylation of a synthetic peptide)
Settings: catalytic domain, His-tag; 2 μM ATP (Km); read-out: JAK3 kinase inhibitory activity (EC50)
Each record here notes measured EC50.

The cases that follow already have their EC50 on record.
Q) Query for JAK3 (Homo sapiens): what EC50 does the record show for O=C1CSC(=O)N1CC(=O)N1CCCN(c2ncnc3[nH]ccc23)CC12CC2 ?
A) 100 to 1000 nM

Q) And then COc1ncccc1C(=O)N1CCN(c2ncnc3[nH]ccc23)CC2(CC2)C1 , what is it?
A) > 1000 nM

---
Q) Test system JAK3 (Homo sapiens); read-out EC50; what value for Cc1sncc1C(=O)N1CCN(c2ncnc3[nH]ccc23)CC2(CC2)C1 ?
A) > 1000 nM

Q) Query O=C(Cc1ccc(OC(F)(F)F)cc1)N1CCN(c2ncnc3[nH]ccc23)CC2(CC2)C1 next
A) 100 to 1000 nM

Q) Would you mind doing NS(=O)(=O)c1ccc(C(=O)N2CCN(c3ncnc4[nH]ccc34)CC3(CC3)C2)cc1 as well?
A) < 100 nM

Q) What about O=C(Cc1ccc(C(F)(F)F)cc1)N1CCN(c2ncnc3[nH]ccc23)CC2(CC2)C1 ?
A) 100 to 1000 nM

Q) Next: N#Cc1cccc(CC(=O)N2CCN(c3ncnc4[nH]ccc34)CCC23CC3)c1
A) > 1000 nM

Q) How about O=C(c1cnco1)N1CCN(c2ncnc3[nH]ccc23)CC2(CC2)C1 ?
A) 100 to 1000 nM

* * *

Molecular target: JAK3 (Homo sapiens)
Construct: All four purified enzymes contain only the catalytic domain; His (N)
Test: JAK3 kinase assay (HTRF, inhibition of phosphorylation of a synthetic peptide)
Conditions: catalytic domain, His-tag; 2 μM ATP (Km); read-out: JAK3 kinase inhibitory activity (EC50)
Listing of recorded EC50 by entry.

Q) What is its EC50 for JAK3 (Homo sapiens)? Entry: O=C(c1ccccc1F)N1CCN(c2ncnc3[nH]ccc23)CC2(CC2)C1 [Example 111]
A) > 1000 nM

Q) Input CCN(CC)S(=O)(=O)N1CCN(c2ncnc3[nH]ccc23)CC2(CC2)C1 [Example 104]
A) > 1000 nM

Q) Request: O=C(c1cc2ccccc2s1)N1CCN(c2ncnc3[nH]ccc23)CC2(CC2)C1 [Example 18]
A) 100 to 1000 nM

Further cases:
Q) Form entry - test system: JAK3 (Homo sapiens); read-out: EC50; molecule: Cn1cncc1C(=O)N1CCN(c2ncnc3[nH]ccc23)CC2(CC2)C1 [Example 144]
A) > 1000 nM

Q) Entry to check: Cc1ccncc1C(=O)N1CCN(c2ncnc3[nH]ccc23)CC2(CC2)C1 [Example 150]
A) > 1000 nM
